Field: self-cleavage. Provide a value for each of the variants that follow.
B1: HDV Ribozyme (parent)
chain: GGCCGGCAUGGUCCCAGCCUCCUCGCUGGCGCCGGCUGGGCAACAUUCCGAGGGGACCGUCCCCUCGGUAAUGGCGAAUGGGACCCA

variants of: B1; assay: self-cleavage, relative activity (ratio to wild type); higher = more cleavage; co-transcriptional
Give bare numbers.

Look over these answered cases.
> print(dat)
   mutation.string  value.reported
1        C18A C66G          0.0639
2        C33U G52A            0.71
3        A43U G54A           0.487
4        A42C G68U           0.128
5        C66U A77C            0.34
6        A42U U46A           0.443
7        G25A G67A           0.299
8         C7A C32U           0.227

Quick one: give me self-cleavage for each item below, same order please.
1. A70G A78U
2. C57U G76C
3. C26U G68U
4. U27C C58G

Completion:
1. 0.151
2. 0.902
3. 1.13
4. 0.7
